- Test system: NCI-H196 complex spheroid viability
- assay.protocol: Anticancer human tumor NCI-H196 cell line growth inhibition [LSD1];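 note: spheroids exposed to agents for 7 days before readout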
- recorded.conditions: second compound 10 µM; first compound 0.949 µM; stronger effect = lower value
Decide using viability, T/C alone. Strictly below 80%: Condition met. Equal to or above 80%: Condition not met.

QUERY: Is viability, T/C of O=C(C=Cc1cccc(S(=O)(=O)Nc2ccccc2)c1)NO + NC1CCC(NC2CC2c2ccccc2)CC1 strictly below 80%?
RESULT: Condition met

QUERY: Is viability, T/C of O=C(C=Cc1cccc(S(=O)(=O)Nc2ccccc2)c1)NO + NC1CC1c1ccc(-c2cccc(O)c2)cc1 strictly below 80%?
RESULT: Condition met

QUERY: Is viability, T/C of Nc1ccccc1NC(=O)c1ccc(CNC(=O)OCc2cccnc2)cc1 + NC1CC1c1ccc(-c2cccc(O)c2)cc1 strictly below 80%?
RESULT: Condition met

QUERY: Is viability, T/C of CCN(c1cc(-c2ccc(CN3CCOCC3)cc2)cc(C(=O)NCc2c(C)cc(C)[nH]c2=O)c1C)C1CCOCC1 + NC1CC1c1ccc(-c2cccc(O)c2)cc1 strictly below 80%?
RESULT: Condition not met

QUERY: Is viability, T/C of NS(=O)(=O)OCC1CC(n2ccc3c(NC4CCc5ccccc54)ncnc32)CC1O (stereo not given) + NC1CC1c1ccc(-c2cccc(O)c2)cc1 strictly below 80%?
RESULT: Condition met

QUERY: Is viability, T/C of CCN(c1cc(-c2ccc(CN3CCOCC3)cc2)cc(C(=O)NCc2c(C)cc(C)[nH]c2=O)c1C)C1CCOCC1 + NC1CCC(NC2CC2c2ccccc2)CC1 strictly below 80%?
RESULT: Condition not met

QUERY: Is viability, T/C of Nc1ccccc1NC(=O)c1ccc(CNC(=O)OCc2cccnc2)cc1 + NC1CCC(NC2CC2c2ccccc2)CC1 strictly below 80%?
RESULT: Condition met
